Where do the numbers come from? From ChEMBL document CHEMBL1208701.

tested on: RAW264.7; test: Inhibition of LPS-induced NF-kappaB transcriptional activity in mouse RAW264.7 cells at 100 uM; assay type: cell-based
Classification field: met = inhibition at or over 50%; not met = inhibition under 50%.

hey, is inhibition for this one >= 50%? Cc1ccc(NC(=O)C2Cc3ccccc3N2C(=O)OC(C)(C)C)cc1 (stereo not given)
not met

hey, is inhibition for this one >= 50%? CC(C)(C)OC(=O)N1c2ccccc2CC1C(=O)Nc1ccccc1 (stereo not given)
not met

hey, is inhibition for this one >= 50%? Cc1ccc(C)c(NC(=O)C2Cc3ccccc3N2C(=O)OC(C)(C)C)c1 (stereo not given)
met

hey, is inhibition for this one >= 50%? COc1ccc(NC(=O)C2Cc3ccccc3N2C(=O)OC(C)(C)C)cc1 (stereo not given)
not met

hey, is inhibition for this one >= 50%? COc1ccc(OC)c(NC(=O)C2Cc3ccccc3N2C(=O)OC(C)(C)C)c1 (stereo not given)
met

hey, is inhibition for this one >= 50%? Cc1ccccc1NC(=O)C1Cc2ccccc2N1C(=O)OC(C)(C)C (stereo not given)
met

hey, is inhibition for this one >= 50%? COc1cccc(NC(=O)C2Cc3ccccc3N2)c1 (stereo not given)
met

hey, is inhibition for this one >= 50%? O=C(Nc1ccccc1C(F)(F)F)C1Cc2ccccc2N1 (stereo not given)
met

hey, is inhibition for this one >= 50%? COc1ccc(NC(=O)C2Cc3ccccc3N2C(=O)OC(C)(C)C)cc1OC (stereo not given)
met

hey, is inhibition for this one >= 50%? COc1cccc(NC(=O)C2Cc3ccccc3N2C(=O)OC(C)(C)C)c1 (stereo not given)
not met

hey, is inhibition for this one >= 50%? O=C(Nc1ccccc1O)C1Cc2ccccc2N1 (stereo not given)
not met

hey, is inhibition for this one >= 50%? CC(C)(C)OC(=O)N1c2ccccc2CC1C(=O)Nc1cc(Cl)ccc1Cl (stereo not given)
met

hey, is inhibition for this one >= 50%? CC(C)(C)OC(=O)N1c2ccccc2CC1C(=O)Nc1cccc([N+](=O)[O-])c1 (stereo not given)
met

hey, is inhibition for this one >= 50%? Cc1cc(C)cc(NC(=O)C2Cc3ccccc3N2C(=O)OC(C)(C)C)c1 (stereo not given)
met

hey, is inhibition for this one >= 50%? Cc1cc(C)cc(NC(=O)C2Cc3ccccc3N2)c1 (stereo not given)
met

hey, is inhibition for this one >= 50%? CC(C)(C)OC(=O)N1c2ccccc2CC1C(=O)Nc1ccccc1O (stereo not given)
met

hey, is inhibition for this one >= 50%? O=C(Nc1ccccc1)C1Cc2ccccc2N1 (stereo not given)
met

hey, is inhibition for this one >= 50%? CC(C)(C)OC(=O)N1c2ccccc2CC1C(=O)Nc1ccc(Cl)cc1 (stereo not given)
not met

hey, is inhibition for this one >= 50%? CC(C)(C)OC(=O)N1c2ccccc2CC1C(=O)Nc1ccc(C(F)(F)F)cc1 (stereo not given)
met

hey, is inhibition for this one >= 50%? CC(C)(C)OC(=O)N1c2ccccc2CC1C(=O)Nc1ccc(Cl)c(Cl)c1 (stereo not given)
met

hey, is inhibition for this one >= 50%? CC(C)(C)OC(=O)N1c2ccccc2CC1C(=O)Nc1ccc(O)cc1 (stereo not given)
not met

hey, is inhibition for this one >= 50%? O=C(Nc1ccc(Cl)cc1)C1Cc2ccccc2N1 (stereo not given)
met

hey, is inhibition for this one >= 50%? O=C(Nc1ccccc1[N+](=O)[O-])C1Cc2ccccc2N1 (stereo not given)
not met

hey, is inhibition for this one >= 50%? COc1ccccc1NC(=O)C1Cc2ccccc2N1C(=O)OC(C)(C)C (stereo not given)
met

hey, is inhibition for this one >= 50%? COc1ccc(OC)c(NC(=O)C2Cc3ccccc3N2)c1 (stereo not given)
not met

hey, is inhibition for this one >= 50%? CC(C)(C)OC(=O)N1c2ccccc2CC1C(=O)Nc1ccccc1[N+](=O)[O-] (stereo not given)
met

hey, is inhibition for this one >= 50%? O=C(Nc1cccc(C(F)(F)F)c1)C1Cc2ccccc2N1 (stereo not given)
met

hey, is inhibition for this one >= 50%? CC(C)(C)OC(=O)N1c2ccccc2CC1C(=O)Nc1ccccc1C(F)(F)F (stereo not given)
not met

hey, is inhibition for this one >= 50%? CC(C)(C)OC(=O)N1c2ccccc2CC1C(=O)Nc1ccc([N+](=O)[O-])cc1 (stereo not given)
met

hey, is inhibition for this one >= 50%? Cc1ccc(NC(=O)C2Cc3ccccc3N2)cc1 (stereo not given)
not met

hey, is inhibition for this one >= 50%? Cc1ccc(C)c(NC(=O)C2Cc3ccccc3N2)c1 (stereo not given)
not met

hey, is inhibition for this one >= 50%? O=C(Nc1ccccc1Cl)C1Cc2ccccc2N1 (stereo not given)
met

hey, is inhibition for this one >= 50%? O=C(Nc1cccc(Cl)c1)C1Cc2ccccc2N1 (stereo not given)
met

hey, is inhibition for this one >= 50%? CC(C)(C)OC(=O)N1c2ccccc2CC1C(=O)Nc1cccc(C(F)(F)F)c1 (stereo not given)
met

hey, is inhibition for this one >= 50%? COc1cc(NC(=O)C2Cc3ccccc3N2C(=O)OC(C)(C)C)cc(OC)c1 (stereo not given)
met

hey, is inhibition for this one >= 50%? O=C(Nc1cc(Cl)cc(Cl)c1)C1Cc2ccccc2N1 (stereo not given)
met

hey, is inhibition for this one >= 50%? Cc1cccc(NC(=O)C2Cc3ccccc3N2)c1 (stereo not given)
not met

hey, is inhibition for this one >= 50%? COc1ccc(NC(=O)C2Cc3ccccc3N2)cc1OC (stereo not given)
not met

hey, is inhibition for this one >= 50%? O=C(Nc1ccc(C(F)(F)F)cc1)C1Cc2ccccc2N1 (stereo not given)
met

hey, is inhibition for this one >= 50%? Cc1ccc(NC(=O)C2Cc3ccccc3N2)cc1C (stereo not given)
met

hey, is inhibition for this one >= 50%? O=C(Nc1ccc([N+](=O)[O-])cc1)C1Cc2ccccc2N1 (stereo not given)
not met

hey, is inhibition for this one >= 50%? CC(C)(C)OC(=O)N1c2ccccc2CC1C(=O)Nc1cccc(Cl)c1 (stereo not given)
met

hey, is inhibition for this one >= 50%? COc1ccc(NC(=O)C2Cc3ccccc3N2)cc1 (stereo not given)
not met
